Where these numbers come from: patent US20210277061A1

What pIC50 was measured for each of the following?
Target Under Test: T1, AF9 YEATS domain, His-AF9 (1-138) (human, UniProt P42568 1-138)
T1 construct: Expressed in E. coli; not shown: His tag
T1 sequence (looked up): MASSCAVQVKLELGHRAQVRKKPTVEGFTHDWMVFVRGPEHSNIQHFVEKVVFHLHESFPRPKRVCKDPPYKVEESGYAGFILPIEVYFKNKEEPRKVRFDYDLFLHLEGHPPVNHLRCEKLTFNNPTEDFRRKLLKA
Experiment Description: photo-cross-linking competition vs photoaffinity probe, in-gel fluorescence
No end group written: not given here. *: point of attachment. Oxazole(5-CO) = O=C(c1cnco1)*
# log scale: pIC50 equals minus log10 of the concentration in mol/L

Would you kindly share the measured pIC50 for KQTARK(Oxazole(5-CO))STGG-NH2 (N-terminus assumed; SMILES C[C@H](NC(=O)[C@@H](NC(=O)[C@H](CCC(N)=O)NC(=O)[C@@H](N)CCCCN)[C@@H](C)O)C(=O)N[C@@H](CCCNC(=N)N)C(=O)N[C@@H](CCCCNC(=O)c1cnco1)C(=O)N[C@@H](CO)C(=O)N[C@H](C(=O)NCC(=O)NCC(N)=O)[C@@H](C)O, also called 4.13) [compound 13 (XL-13)] ?
6.13

Repeat for the following binder: KQTARKSTGG-NH2 (not fully specified (residue 6); also: Lys6 acylated with group R, structure drawing only, also called 4.11) [compound 11 (XL-11)]
4.80

Can you handle KQTARKSTGG-NH2 (not fully specified (residue 6); also: Lys6 acylated with group R, structure drawing only, also called 4.1) [compound 1 (XL-01)] next?
4.55

Same thing, different binder: KQTARKSTGG-NH2 (not fully specified (residue 6); also: Lys6 acylated with group R, structure drawing only, also called 4.12) [compound 12 (XL-12)]
4.98
